System: human lung cancer strain NCI-H441
Format: cell-based
Procedure: A test compound was dispensed into a U-bottom 384-well plate as 40 nL serially diluted dimethyl sulfoxide solutions using a liquid handler Echo (LABCYTE). […] This cell suspension was dispensed in an amount of 40 µL per well into a plate containing the test compound, and cultured at 37°C in a 5% carbon dioxide gas incubator. Four days later, 20 µL of CellTiter-Glo (registered trademark) (Promega) was added to each well and […] was measured. […]
Where a SMILES comes first, the peptide text is derived from it. Bridges are numbered along the chain shown (N, C = ends). [ ]: non-standard residue; d: D form. The star is where a group is joined. hPhe(3-Cl-4-CF3) = N[C@@H](CCc1ccc(C(F)(F)F)c(Cl)c1)C(=O)O; NPrPhe(4-CF3) = CCCN[C@@H](Cc1ccc(C(F)(F)F)cc1)C(=O)O; NMeGly(cPent) = CN[C@H](C(=O)O)C1CCCC1; Hyp = O=C(O)[C@@H]1C[C@@H](O)CN1; NMeL = CN[C@@H](CC(C)C)C(=O)O; Morpholide = C1CN(*)CCO1; Ac5c = NC1(C(=O)O)CCCC1; Aze = O=C(O)[C@@H]1CCN1; Sar = CNCC(=O)O
value_kind: IC50 (nM)
Quick note: give the figure in nM, leave out the unit.

Worked cases, answers included:
INSERT INTO assay_data (compound, target_or_system, test_value) VALUES
  ('CCO[C@@H]1C[C@H]2C(=O)NC3(CC(C)(C)C3)C(=O)N(C)[C@@H](C3CCCC3)C(=O)N(C)[C@H](C(=O)N(C)CC)CC(=O)N(C)[C@@H](CC(C)C)C(=O)N[C@@H]([C@@H](C)CC)C(=O)N(C)CC(=O)N(C)[C@H]3C/C=C\CCN(C3=O)[C@@H](Cc3ccc(C(F)F)cc3)C(=O)N(C)CC(=O)N[C@@H](CCc3cc(C)c(C(F)F)c(C)c3)C(=O)N2C1 [PP3144]', 'human lung cancer strain NCI-H441', 72.7),
  ('CCC[C@H]1C(=O)N[C@@H]([C@@H](C)CC)C(=O)N(C)CC(=O)N(C)[C@H]2C/C=C\CCN(C2=O)[C@@H](Cc2ccc(C(F)(F)F)cc2)C(=O)N(C)CC(=O)N[C@@H](CCc2ccc(C(F)(F)F)c(F)c2)C(=O)N2C[C@H](F)C[C@H]2C(=O)NC2(CC(C)(C)C2)C(=O)N(C)[C@@H](C2CCCCC2)C(=O)N(C)[C@H](C(=O)N(C)C)CC(=O)N1C [PP3122]', 'human lung cancer strain NCI-H441', 11.1),
  ('CC[C@H](C)[C@@H]1NC(=O)[C@H](CC(C)C)N(C)C(=O)C[C@@H](C(=O)N2CCOCC2)N(C)C(=O)[C@H](C2CCCC2)N(C)C(=O)C2(CCCC2)NC(=O)[C@@H]2[C@@H](O)CCN2C(=O)[C@H](CCc2cc(F)c(C(F)(F)F)c(F)c2)NC(=O)CN(C)C(=O)[C@H](Cc2ccc(C(F)(F)F)cc2)N2CCCCC[C@@H](C2=O)N(C)C(=O)CN(C)C1=O [PP0662]', 'human lung cancer strain NCI-H441', 1570),
  ('CCCN1C(=O)[C@@H]2CCN2C(=O)CN(C)C(=O)[C@H]([C@@H](C)CC)NC(=O)[C@H](CC(C)C)N(C)C(=O)C[C@@H](C(=O)N2CCOCC2)NC(=O)[C@H](C2CCCC2)N(C)C(=O)C2(CCCC2)NC(=O)[C@@H]2C[C@@H](OCC)CN2C(=O)[C@H](CCc2ccc(C(F)(F)F)c(Cl)c2)NC(=O)CN(C)C(=O)[C@@H]1Cc1ccc(C(F)(F)F)cc1 [PP0353] ([NMeL]I[Sar][Aze][NPrPhe(4-CF3)][Sar][hPhe(3-Cl-4-CF3)][Hyp](Et)[Ac5c][NMeGly(cPent)]D-Morpholide; lactam N-11)', 'human lung cancer strain NCI-H441', 46.7);

Moving on to the next compound.
[ask] # lookup: IC50 of CCCC[C@H]1C(=O)N[C@@H]([C@@H](C)CC)C(=O)N(C)CC(=O)N(C)[C@H]2C/C=C\CCN(C2=O)[C@@H](Cc2ccc(C(F)(F)F)cc2)C(=O)N(C)CC(=O)N[C@@H](CCc2ccc(C(F)(F)F)c(Cl)c2)C(=O)N2C[C@H](OCC)C[C@H]2C(=O)NC2(CCC2)C(=O)N(C)[C@@H](C2CCCC2)C(=O)N(C)[C@H](C(=O)N(C)CC)CC(=O)N1C [PP2841]
[reply] 8.3
